A collection of compounds and their measured log10(EC50)
- Tested on: Hepatitis C virus
- assay: Antiviral activity against HCV genotype 1b Con1 harboring NS3 R155K mutant infected in human HuH7 replicon cells after 3 days by luciferase reporter gene assay
- Format: functional, organism-based, Hepacivirus hominis
- details: isolate Con1, Huh-7, 72 h
Values are log10 of EC50 in nM.

chemical string	log10(EC50)
CC(=O)N(C)[C@@H](CC(C)(C)C)C(=O)N[C@H]1CCCCC/C=C\[C@@H]2C[C@@]2(C(=O)NS(=O)(=O)C2(C)CC2)NC(=O)[C@@H]2C[C@@H](Oc3nc4cc(F)ccc4c4ccccc34)CN2C1=O	0.90

Measured log10(EC50), "Cc1cc(C(=O)N[C@H]2CCCCC/C=C\[C@@H]3C[C@@]3(C(=O)NS(=O)(=O)C3CC3)NC(=O)[C@@H]3C[C@@H](Oc4nc5ccccc5nc4C(F)(F)F)CN3C2=O)no1" : -0.15

Measured log10(EC50), "Cc1cc(C(=O)N[C@H]2CCCCC/C=C\[C@@H]3C[C@@]3(C(=O)NS(=O)(=O)C3CC3)NC(=O)[C@@H]3C[C@@H](Oc4nc5ccccc5nc4C)CN3C2=O)no1" : 0.30

Measured log10(EC50), "Cc1cc(C(=O)N[C@H]2CCCCC/C=C\[C@@H]3C[C@@]3(C(=O)NS(=O)(=O)C3(C)CC3)NC(=O)[C@@H]3C[C@@H](Oc4nc5cc(F)ccc5nc4C(F)(F)F)CN3C2=O)no1" : -0.40

Measured log10(EC50), "Cc1cc(C(=O)N[C@H]2CCCCC/C=C\[C@@H]3C[C@@]3(C(=O)NS(=O)(=O)C3(C)CC3)NC(=O)[C@@H]3C[C@@H](Oc4nc5ccccc5c5ccc(F)cc45)CN3C2=O)no1" : -0.40

Measured log10(EC50), "Cn1ccc(C(=O)N[C@H]2CCCCC/C=C\[C@@H]3C[C@@]3(C(=O)NS(=O)(=O)C3(C)CC3)NC(=O)[C@@H]3C[C@@H](Oc4nc5cc(OC(F)(F)F)ccc5c5ccc(F)cc45)CN3C2=O)n1" : -1.52

Measured log10(EC50), "Cc1cc(C(=O)N[C@H]2CCCCC/C=C\[C@@H]3C[C@@]3(C(=O)NS(=O)(=O)C3CC3)NC(=O)[C@@H]3C[C@@H](Oc4nc5cc(F)ccc5nc4C)CN3C2=O)no1" : 0.20

Each recorded value in this set is attributed to ChEMBL document CHEMBL4219043.
